biological target: EGFR L858R/T790M/C797S (Homo sapiens, UniProt P00533, C797S/L858R/T790M); test: Biochemical EGFR kinase assay (Lance Ultra TR-FRET), triple mutant L858R/T790M/C797S; details: IC50 L858R/T790M/C797S, 100 μM ATP
Sequence (P00533 25-1210 T790M/C797S/L858R): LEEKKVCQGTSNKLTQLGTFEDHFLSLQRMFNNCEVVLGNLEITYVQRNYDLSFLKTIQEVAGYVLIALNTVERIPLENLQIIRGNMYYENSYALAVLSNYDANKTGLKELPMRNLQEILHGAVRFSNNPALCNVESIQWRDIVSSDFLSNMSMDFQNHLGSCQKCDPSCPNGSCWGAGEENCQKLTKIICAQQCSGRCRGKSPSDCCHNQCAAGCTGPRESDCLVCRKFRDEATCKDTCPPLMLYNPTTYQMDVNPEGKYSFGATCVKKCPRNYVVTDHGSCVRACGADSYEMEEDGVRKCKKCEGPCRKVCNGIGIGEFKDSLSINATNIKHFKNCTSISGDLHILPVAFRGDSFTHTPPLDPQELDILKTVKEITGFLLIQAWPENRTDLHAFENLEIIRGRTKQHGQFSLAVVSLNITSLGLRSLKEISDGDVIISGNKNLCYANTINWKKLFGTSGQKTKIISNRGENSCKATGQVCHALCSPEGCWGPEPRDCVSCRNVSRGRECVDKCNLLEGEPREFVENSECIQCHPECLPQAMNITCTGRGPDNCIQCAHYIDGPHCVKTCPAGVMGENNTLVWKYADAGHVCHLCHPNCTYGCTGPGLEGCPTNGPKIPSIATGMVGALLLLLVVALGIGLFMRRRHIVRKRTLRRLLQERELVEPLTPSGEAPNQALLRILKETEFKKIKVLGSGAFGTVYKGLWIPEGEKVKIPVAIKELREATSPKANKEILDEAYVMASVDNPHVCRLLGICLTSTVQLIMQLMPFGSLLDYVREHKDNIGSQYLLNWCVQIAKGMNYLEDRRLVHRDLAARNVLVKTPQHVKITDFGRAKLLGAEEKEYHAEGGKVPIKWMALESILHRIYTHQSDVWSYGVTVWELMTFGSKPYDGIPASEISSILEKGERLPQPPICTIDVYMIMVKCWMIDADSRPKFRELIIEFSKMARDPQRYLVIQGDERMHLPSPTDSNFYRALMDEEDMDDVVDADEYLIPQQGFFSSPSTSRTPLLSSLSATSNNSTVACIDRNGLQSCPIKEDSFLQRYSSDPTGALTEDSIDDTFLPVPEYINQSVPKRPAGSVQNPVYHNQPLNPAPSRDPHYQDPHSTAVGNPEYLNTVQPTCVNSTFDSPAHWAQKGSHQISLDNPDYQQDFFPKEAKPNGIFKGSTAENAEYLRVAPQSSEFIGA
Decision: IC50 beneath 0.4 nM gives TRUE; IC50 meeting or exceeding 0.4 nM gives FALSE.

IC50 under 0.4 nM? Item: CN(C)CC1CCC(Nc2cc(Nc3ccnc(-c4cnn(S(=O)(=O)C5CC5)c4)n3)ncc2-c2ccc(C(C)(O)C(F)(F)F)cn2)CC1 (stereo not drawn)
TRUE

IC50 under 0.4 nM? Item: `O=S(=O)(C1CC1)n1cc(-c2nccc(Nc3cc(N[C@H]4CC[C@@H](CO)CC4)c(-c4cc(NC5CC(F)(F)C5)ccn4)cn3)n2)cn1`
FALSE

IC50 under 0.4 nM? Item: `CC(C)(O)[C@H]1CC[C@@H](Nc2cc(Nc3ccnc(-c4cnn(S(=O)(=O)C5CC5)c4)n3)ncc2-c2cnc(F)cn2)CC1`
FALSE

IC50 under 0.4 nM? Item: `O=S(=O)(C1CC1)n1cc(-c2nccc(Nc3cc(N[C@H]4CC[C@@H](NCCF)CC4)c(-c4cccc(F)n4)cn3)n2)cn1`
TRUE

IC50 under 0.4 nM? Item: `CC(C)(F)c1ccc(-c2cnc(Nc3ccnc(-c4cnn(S(=O)(=O)C5CC5)c4)n3)cc2N[C@H]2CC[C@@](C)(O)CC2)nc1`
FALSE

IC50 under 0.4 nM? Item: `C[C@]1(O)CC[C@@H](Nc2cc(Nc3ccnc(-c4cnn(S(=O)(=O)C5CC5)c4)n3)ncc2-c2ccc(C(=O)N3CCOCC3)cn2)CC1`
TRUE

IC50 under 0.4 nM? Item: `CC1CCN(S(=O)(=O)c2ccc(-c3cnc(Nc4ccnc(-c5cnn(S(=O)(=O)C6CC6)c5)n4)cc3N[C@H]3CC[C@@H](C(C)(C)O)CC3)nc2)CC1`
FALSE

IC50 under 0.4 nM? Item: `CC(C)(O)c1ccc(-c2cnc(Nc3ccnc(-c4cnn(S(=O)(=O)C5CC5)c4)n3)cc2N[C@H]2CC[C@@H](C(C)(C)O)CC2)nc1`
FALSE

IC50 under 0.4 nM? Item: `CN(C)C[C@H]1CC[C@@H](Nc2cc(Nc3ccnc(-c4cnn(S(=O)(=O)C5CC5)c4)n3)ncc2-c2cccc(F)n2)CC1`
TRUE

IC50 under 0.4 nM? Item: `CC(C)(O)[C@H]1CC[C@@H](Nc2cc(Nc3ccnc(-c4cnn(S(=O)(=O)C5CC5)c4)n3)ncc2-c2cc(OCCN3CCOCC3)ccn2)CC1`
FALSE

IC50 under 0.4 nM? Item: `CS(=O)(=O)c1ccc(-c2cnc(Nc3ccnc(-c4cnn(S(=O)(=O)C5CC5)c4)n3)cc2N[C@H]2CC[C@@](C)(O)CC2)nc1`
TRUE

IC50 under 0.4 nM? Item: `CC(C)(O)c1ccc(-c2cnc(Nc3ccnc(-c4cnn(S(=O)(=O)C5CC5)c4)n3)cc2N[C@H]2CC[C@@H](CO)CC2)nc1`
FALSE

IC50 under 0.4 nM? Item: `C[C@]1(O)CC[C@@H](Nc2cc(Nc3ccnc(-c4cnn(S(=O)(=O)C5CC5)c4)n3)ncc2-c2cccc(NCCO)n2)CC1`
TRUE

IC50 under 0.4 nM? Item: CC(C)(O)C1CCC(Nc2cc(Nc3ccnc(-c4cnn(S(=O)(=O)C5CC5)c4)n3)ncc2-c2ccc(C(C)(O)C(F)(F)F)cn2)CC1 (stereo not drawn)
FALSE

IC50 under 0.4 nM? Item: `CC(F)(F)c1ccc(-c2cnc(Nc3ccnc(-c4cnn(S(=O)(=O)C5CC5)c4)n3)cc2N[C@H]2CC[C@@H](CO)CC2)nc1`
FALSE

IC50 under 0.4 nM? Item: `O=S(=O)(C1CC1)n1cc(-c2nccc(Nc3cc(N[C@H]4CC[C@@H](CO)CC4)c(-c4cc(OCCN5CCOCC5)ccn4)cn3)n2)cn1`
FALSE

IC50 under 0.4 nM? Item: CC(O)(c1ccc(-c2cnc(Nc3ccnc(-c4cnn(S(=O)(=O)C5CC5)c4)n3)cc2NC2CCC(CO)CC2)nc1)C(F)(F)F (stereo not drawn)
FALSE

IC50 under 0.4 nM? Item: `C[C@]1(O)CC[C@@H](Nc2cc(Nc3ccnc(-c4cnn(S(=O)(=O)C5CC5)c4)n3)ncc2-c2ccc(OCCN3CCC3)cn2)CC1`
TRUE

IC50 under 0.4 nM? Item: `O=S(=O)(C1CC1)n1cc(-c2nccc(Nc3cc(N[C@H]4CC[C@@H](NCC(F)F)CC4)c(-c4cccc(F)n4)cn3)n2)cn1`
FALSE

IC50 under 0.4 nM? Item: CC(O)(c1ccc(-c2cnc(Nc3ccnc(-c4cnn(S(=O)(=O)C5CC5)c4)n3)cc2N[C@H]2CCC[C@H](CO)C2)nc1)C(F)(F)F (stereo partly drawn)
FALSE

IC50 under 0.4 nM? Item: `CC(C)(O)[C@H]1CC[C@@H](Nc2cc(Nc3ccnc(-c4cnn(S(=O)(=O)C5CC5)c4)n3)ncc2-c2ccc(S(C)(=O)=O)cn2)CC1`
FALSE

IC50 under 0.4 nM? Item: `CN(C)C[C@H]1CC[C@@H](Nc2cc(Nc3ccnc(-c4cnn(S(=O)(=O)C5CC5)c4)n3)ncc2-c2ccc(C(C)(C)O)cn2)CC1`
TRUE
